Target or system TYRO3 (Homo sapiens, UniProt Q06418); recorded quantity IC50.

Take a look at these entries with their results.
COc1cc2nccc(Oc3ccc(NC(=O)c4cc(S(C)(=O)=O)n(-c5ccc(F)cc5)n4)c(F)c3)c2cc1OC [Ex71]; < 500 nM
COc1cc2nccc(Oc3ccc(NC(=O)c4cc(S(C)(=O)=O)n(-c5ccc(F)cc5)n4)cc3F)c2cc1OC [Ex73]; 1000 to 10000 nM

Prompt: Param readout = IC50; param system = TYRO3 (Homo sapiens, UniProt Q06418); param query = COc1cc2nccc(Oc3ccc(NC(=O)c4ccn(-c5ccc(F)cc5)n4)c(F)c3)c2cc1OC [Ex78] ; response: value
Sequence (Q06418 41-890): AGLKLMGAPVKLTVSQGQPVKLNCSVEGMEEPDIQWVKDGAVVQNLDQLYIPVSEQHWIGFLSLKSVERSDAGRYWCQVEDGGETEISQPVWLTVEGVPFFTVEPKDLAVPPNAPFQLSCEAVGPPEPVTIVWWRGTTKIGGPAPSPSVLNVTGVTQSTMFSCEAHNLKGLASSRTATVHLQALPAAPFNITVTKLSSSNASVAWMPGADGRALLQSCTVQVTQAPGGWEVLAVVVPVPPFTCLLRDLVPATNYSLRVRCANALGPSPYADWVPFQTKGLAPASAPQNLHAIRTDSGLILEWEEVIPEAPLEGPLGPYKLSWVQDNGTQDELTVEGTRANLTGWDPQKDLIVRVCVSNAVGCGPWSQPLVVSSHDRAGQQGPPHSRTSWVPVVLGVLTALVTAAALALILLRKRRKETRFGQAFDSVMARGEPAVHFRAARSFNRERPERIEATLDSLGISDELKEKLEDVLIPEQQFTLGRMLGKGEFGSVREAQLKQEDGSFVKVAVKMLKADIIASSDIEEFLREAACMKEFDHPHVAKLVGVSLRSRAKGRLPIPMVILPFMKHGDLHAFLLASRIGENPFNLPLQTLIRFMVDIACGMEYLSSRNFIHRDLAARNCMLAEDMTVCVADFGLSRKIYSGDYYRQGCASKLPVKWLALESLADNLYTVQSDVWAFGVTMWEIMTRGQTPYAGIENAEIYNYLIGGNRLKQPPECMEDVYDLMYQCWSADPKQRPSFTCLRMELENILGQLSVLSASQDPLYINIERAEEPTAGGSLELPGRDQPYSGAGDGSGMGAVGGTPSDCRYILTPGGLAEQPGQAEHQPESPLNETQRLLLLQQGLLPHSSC
Response: < 500 nM
